# tested-on: T1, DLG3_3, Q92796
# T1 sequence (Q92796 374-475, limits assumed, looked up): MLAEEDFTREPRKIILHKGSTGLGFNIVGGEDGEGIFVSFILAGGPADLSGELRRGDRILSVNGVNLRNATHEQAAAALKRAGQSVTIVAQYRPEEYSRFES
# run-description: holdup assay
# Set-up: key: below the threshold = too weak to quantify, mostly under pKd 3.1 to 4
# assay-context: plain residues with an end cap or a label only (N-terminal biotin on a linker: ttds)
Assign Satisfied whenever pKd does not fall below 4; assign Not satisfied whenever it does.

| binder | label-value |
| --- | --- |
| PPRQRSETQV [HPV82-E6, Q9IR59] | Satisfied |
| SHSSKGETAV [FZD7, O75084] | Satisfied |
| QRPYRRESEI [KCNJ12, Q14500] | Satisfied |
| GRLLGLETNV [ARHGEF26, Q96DR7] | Satisfied |
| FVETQHQTQV [FAT3, Q8TDW7] | Not satisfied |
